# growth listing for each entry below
- System: U251 CNS
- assay_procedure: NCI-60 one-dose screen, 48 h (100 = growth as untreated, 0 = no growth, -100 = all killed)
- experimental_conditions: 10 µM
The panel holds about 83,000 compounds, 20% with a hit somewhere; the sample as a whole holds those more often.
Provide the reading as a plain figure in %.

Worked examples follow.
COc1ccc(C(c2ccc(OCCN(C)C)cc2)c2cc3ccccc3c3ccccc23)cc1 (centres undefined) = 16.6
NC(CSC(c1ccccc1)(c1ccccc1)c1cccc2ccccc12)C(=O)O (centres undefined) = 93
O=C(N/N=C/c1ccc([N+](=O)[O-])cc1)c1ccccc1Nc1cccc(C(F)(F)F)c1 = 89.2
COc1cc(/C=C/c2cc(/C=C/c3ccc(O)c(OC)c3)n(C(=O)Nc3ccccc3Cl)n2)ccc1O = 2.33
COc1ccc(/C=C2\CCCC3=C2NC(N)=NC3c2ccc(OC)cc2)cc1 (centres undefined) = 90.6
CCCCC1(O)CCCCC1 = 99.1

Please list growth recorded for the molecule "COc1cc2c3c(n(C4CCNCC4)c(=O)c2cc1OC)-c1cc2c(cc1C3=O)OCO2"
-64.3

Please list growth recorded for the molecule "CC(C)(C)OC(=O)N1CCc2c(sc3ncnc(N/N=C/c4cccc(Br)c4)c23)C1"
51

Please list growth recorded for the molecule "O=C(CSc1nnc(-c2cccnc2SCc2ccccc2)o1)Nc1nc(Cl)cc(Cl)n1"
106
